The compounds listed here are annotated with their growth.
test system: TK-10 renal; assay: NCI-60 one-dose screen, 48 h (100 = growth as untreated, 0 = no growth, -100 = all killed); settings: 10 µM unless noted
The panel holds about 83,000 compounds, 20% with a hit somewhere; the sample as a whole holds those more often.

Compound	System Tested	growth (%)
C[C@@H]1COCCN1c1cc(C2([S@](C)(=N)=O)CC2)nc(-c2ccnc3[nH]ccc23)n1	TK-10 renal	42.9
COC(=O)[C@H](Cc1ccccc1)NC(=O)[C@@H](OC)[C@@H]1Cc2cc3cc(OC4CC(OC5CC(O)C(O)C(C)O5)C(O)C(C)O4)c(C)c(O)c3c(O)c2C(=O)[C@H]1OC1CC(OC2CC(OC3CC(C)(O)C(O)C(C)O3)C(O)C(C)O2)C(O)C(C)O1 (some centres undefined)	TK-10 renal	6.76
CC1(/C=N/NC(N)=S)NC(=O)NC1=O (centres undefined)	TK-10 renal	96.5
Cc1cc(C(O)CN(C)C)cc2c1ccc1cc(C(C)C)ccc12 (centres undefined)	TK-10 renal	-62.1
O=C1CCC(=O)CC1	TK-10 renal	96.4
Cc1ccc(NC(=O)NC(=O)CSc2nc3ccccc3nc2C)cc1	TK-10 renal	82.3
CN(C)C/C=C/C(=O)Nc1cc2c(Nc3ccc(F)c(Cl)c3)ncnc2cc1O[C@H]1CCOC1	TK-10 renal	-10.4
COc1ccc(-c2cnc(-c3ccc(Cl)cc3)[nH]2)cc1OC	TK-10 renal	139
CCOC(=O)C1=C(C)N=C2Sc3cc(OC(F)(F)F)ccc3N2[C@H]1c1ccccn1	TK-10 renal	51.1
O=C1NC(=O)/C(=C/c2ccc3nccc(-c4ccncc4)c3c2)S1	TK-10 renal	-68.8
C=C1CC[C@@H]2[C@](C)(COC(C)=O)[C@H](OC(C)=O)CC[C@@]2(C)[C@@H]1C/C=C1/C(=O)OC[C@H]1OC(C)=O	TK-10 renal	16.9
Cn1c(=O)c(F)c(Nc2ccc(I)cc2F)c2c(=O)n(C[C@@H](O)CO)cnc21	TK-10 renal	41.2
COc1cc2nccc(Oc3ccc(NC(=O)C4(C(=O)Nc5ccc(F)cc5)CC4)cc3)c2cc1OC	TK-10 renal	15.1
Cc1c(NC(=O)OC[C@@H]2COCCN2)cn2ncnc(Nc3ccc4c(cnn4Cc4cccc(F)c4)c3)c12	TK-10 renal	-7.43
Cc1ccccc1N1C(c2ccccc2)=NNC12C=CC(=O)C=C2Cl (centres undefined)	TK-10 renal	109
O=C(CNc1nc2ccccc2s1)Nc1ccc(-c2nc3ccccc3s2)cc1	TK-10 renal	96.7
Cn1ccnc1C(=O)/C=C/c1ccc(CC(=O)Nc2ccc(C(F)(F)F)cc2)cc1	TK-10 renal	32.6
COc1ccc(C(=O)N2c3ccccc3Sc3ccccc32)c(F)c1	TK-10 renal	44.5
CNC(=O)c1cc(COc2nnc(Nc3ccc(Cl)cc3)c3ccoc23)ccn1	TK-10 renal	33

---

system: HCT-15 colon; assay: NCI-60 one-dose screen, 48 h; details: 10 µM unless noted
This is part of a sample that, as a whole, favours compounds with a hit. Of some 83,000 tested, about 20% had one in any assay. Activity calls are given as the source filed them. Rule for the calls: active = growth percent below 10; inactive = the rest.
Labels: 1 (active), 0 (inactive)

Compound	Group
COc1cc(CCc2cc(NC(=O)c3ccc(N4C[C@@H](C)N[C@@H](C)C4)cc3)n[nH]2)cc(OC)c1	0
COc1cc2ncnc(Nc3ccc(O)cc3)c2cc1OC	0
Cc1cc(N2CCCC2)nc(N(CCCNc2ccnc3cc(Cl)ccc23)Cc2ccc3c(c2)OCO3)n1	1
COc1cccc2cc(-c3nc(C4CCC(C(=O)O)CC4)n4ncnc(N)c34)[nH]c12 (centres undefined)	0
COc1cc2c(Oc3ccc(NC(=O)C4(C(=O)Nc5ccc(F)cc5)CC4)cc3F)ccnc2cc1OCCCN1CCOCC1	1
CC(C)(C)c1cnc(CSc2cnc(NC(=O)C3CCNCC3)s2)o1	0
O=C(CNc1nnc(-c2ccc(Cl)cc2)o1)Nc1ccc(-c2nc3ccccc3s2)cc1	0
COc1ccc(C2CC(=O)c3c(O)c(OC)c(OC)c(OC)c3O2)c(O)c1 (centres undefined)	0
O=c1[nH]c([C@@H]2CCCN2)nc2c1oc1ccc(Cl)cc12	0
COC(=O)CCCNc1c(-c2c(O)c(O)cc3c(O)c(-c4c(C)cc5c(-c6nc7ccccn7c6NCCCC(=O)OC)c(O)c(O)cc5c4O)c(C)cc23)nc2ccccn12	0
O=c1[nH]c(N2CCOCC2)nc2scc(-c3ccccc3)c12	0
NC1(c2ccc(-c3nc4ccn5c(=O)[nH]nc5c4cc3-c3ccccc3)cc2)CCC1	0
CCOC(=O)c1sc(NC(=O)COc2ccc(/C=C3\Cc4ccc(Cl)cc4C3=O)cc2)nc1C	0
CC(C)Nc1cc(-c2c[nH]c(C(=O)N[C@H](CO)c3cccc(Cl)c3)c2)c(Cl)cn1	0
COc1ccc2c(CCC(c3ccccc3)c3ccccc3)c3[n+](cc2c1OC)CCc1cc2c(cc1-3)OCO2	0
Cn1nccc1Nc1nccc(-c2ccn([C@H](CO)c3ccc(Cl)c(F)c3)c(=O)c2)n1	0
CO[C@H]1C[C@@H]2CC[C@@H](C)[C@@](O)(O2)C(=O)C(=O)N2CCCC[C@H]2C(=O)O[C@H]([C@H](C)C[C@@H]2CC[C@@H](O)[C@H](OC)C2)CC(=O)[C@H](C)/C=C(\C)[C@@H](O)[C@@H](OC)C(=O)[C@H](C)C[C@H](C)\C=C/C=C/C=C/1C	0
O=C(c1ccccc1)C(c1ccccc1)N1CCOCC1 (centres undefined)	0
CC#CC(=O)N1CCC[C@H]1c1nc(-c2ccc(C(=O)Nc3ccccn3)cc2)c2c(N)nccn12	0

---

tested on: CCRF-CEM leukemia; experiment: NCI-60 one-dose screen, 48 h; details: 10 µM unless noted
This is part of a sample that, as a whole, favours compounds with a hit. Of some 83,000 tested, about 20% had one in any assay. Activity calls are given as the source filed them. How the source made its calls: active means growth percent below 10; inactive means the rest.
Labels: active, inactive

>>> df
                                    compound     group
 0  CCCNC(=O)c1cn2ncnc(Nc3cc(C(=O)NC4CC4)ccc3C)c2c1C  inactive
 1  CC(C)=CCc1cc2c(cc1O)C1=C(C(=O)C3=C(NCCS3(=O)=O)C1=O)C(C=C(C)C)O2 (centres undefined)    active
 2  CN(C)C1CCN(C(=O)c2ccc(NC(=O)Nc3ccc(-c4nc(N5CCOCC5)nc(N5CCOCC5)n4)cc3)cc2)CC1    active
 3  O=c1nc2c(-c3nc4ccccc4s3)n[nH]n2c2sc3c(c12)CCCC3  inactive
 4  Cc1nc2ccc(-n3ncc(C(=O)c4cc5ccccc5[nH]4)c3N)cc2[nH]1  inactive
 5  CCOc1cccc(/C=N/NC(=O)c2ccccc2Nc2ccnc(C(F)(F)F)c2)c1O    active
 6  CC[n+]1c(/C=C/C=C2\N(C)c3ccccc3C2(C)C)sc2ccccc21    active
 7  CCS(=O)(=O)N1CCN(c2ccc(Nc3ncc(C(N)=O)c(NC4CC4)n3)cc2)CC1  inactive
 8  CNS(=O)(=O)Nc1nccc(Cc2c(C)c3ccc(Oc4ncccn4)cc3oc2=O)c1F  inactive
 9  Nc1nc(=S)c2ncn(C3OC(COC(=O)c4ccc(Cl)cc4)C(OC(=O)c4ccc(Cl)cc4)C3OC(=O)c3ccc(Cl)cc3)c2[nH]1 (centres undefined)  inactive
10  Cc1sc2c(c1C)c(=O)nc1c(-c3nc(-c4ccccc4)cs3)n[nH]n12  inactive
11  O=C1C=CC2(NN=C(c3ccccc3)N2c2ccc(Cl)cc2)c2cccc(O)c21 (centres undefined)  inactive
12   O=c1[nH]ccc2c(S(=O)(=O)N3CCCNCC3)cccc12  inactive
13  COc1c(C(NC(=O)c2ccccc2)c2sccc2C)cc(Cl)c2cccnc12 (centres undefined)  inactive
14  C=CC(=O)N1CCC[C@@H](n2nc(-c3ccc(Oc4ccccc4)cc3)c3c(N)ncnc32)C1  inactive
15  CC(C)c1cc(CNc2nc(Nc3cc(C4CC4)[nH]n3)cc(N3CCN(C)CC3)n2)on1    active
16      Oc1ccc(C(c2ccc(O)cc2)C(Cl)(Cl)Cl)cc1  inactive
17  O=C(c1ccc(F)c(F)c1Nc1ccc(I)cc1F)N1CC(O)([C@@H]2CCCCN2)C1  inactive
18  CNC(=O)CN1CCC(Oc2cc3c(Nc4cccc(Cl)c4F)ncnc3cc2OC)CC1  inactive

---

test system: HCT-116 colon; experiment: NCI-60 one-dose screen, 48 h; conditions: 10 µM unless noted
Compounds without any hit were thinned out: in the full panel of roughly 83,000, 20% have a hit. Calls of active or inactive are those of the source. The calls were made as follows: active = growth percent below 10; inactive = the rest.
Labels: active, inactive

Molecule	Group
C=CC(=O)Nc1cc2c(Nc3ccc(F)c(Cl)c3)ncnc2cc1C#CC(C)(C)N1CCN(C)CC1	active
O=[N+]([O-])c1cc(Br)cc2c1[nH]c1ccc(Br)cc12	inactive
N#CC(C#N)=NO	inactive
CN(C[C@@H]1COCCO1)S(=O)(=O)Nc1ccc2ccc3ncc(-c4cnn(C)c4)cc3c(=O)c2c1	inactive
CC[C@H](Nc1ncnc2nc[nH]c12)c1nc2cccc(F)c2c(=O)n1-c1ccccc1	inactive
Fc1ccc(NCc2cn(-c3ccccc3)nc2-c2ccc(OCc3ccccc3)cc2)cc1Cl	inactive
Cc1c(CN2CCN(C(=O)[C@H](C)O)CC2)sc2c(N3CCOCC3)nc(-c3cnc(N)nc3)nc12	active
O=C1C=CC2(NN=C(c3ccccc3)N2c2ccccc2)c2cccc(O)c21 (configuration not stated)	inactive
CO[C@H](C(=O)N[C@@H](CCCCNC(=O)OCc1ccccc1)C(=O)OC(C)(C)C)[C@@H]1Cc2cc3cc(OC4CC(OC5CC(O)C(O)C(C)O5)C(O)C(C)O4)c(C)c(O)c3c(O)c2C(=O)[C@H]1OC1CC(OC2CC(OC3CC(C)(O)C(O)C(C)O3)C(O)C(C)O2)C(O)C(C)O1 (some centres not stated)	active
Cc1ccc(NC(=O)c2ccc(CN3CCN(C)CC3)cc2)cc1Nc1nc(-c2cccnc2)cs1	inactive
Nc1ncnc2c1ccn2-c1cccc(NC(=O)c2ccc(N3CCOCC3)c(C(F)(F)F)c2)c1	inactive
CC(C)CC(=O)Nc1n[nH]c2c1CN(C(=O)C1CCN(C)CC1)C2(C)C	active
